target-system: Prostaglandin G/H synthase 1 (Ovis aries)
Sequence (P05979 whole entry): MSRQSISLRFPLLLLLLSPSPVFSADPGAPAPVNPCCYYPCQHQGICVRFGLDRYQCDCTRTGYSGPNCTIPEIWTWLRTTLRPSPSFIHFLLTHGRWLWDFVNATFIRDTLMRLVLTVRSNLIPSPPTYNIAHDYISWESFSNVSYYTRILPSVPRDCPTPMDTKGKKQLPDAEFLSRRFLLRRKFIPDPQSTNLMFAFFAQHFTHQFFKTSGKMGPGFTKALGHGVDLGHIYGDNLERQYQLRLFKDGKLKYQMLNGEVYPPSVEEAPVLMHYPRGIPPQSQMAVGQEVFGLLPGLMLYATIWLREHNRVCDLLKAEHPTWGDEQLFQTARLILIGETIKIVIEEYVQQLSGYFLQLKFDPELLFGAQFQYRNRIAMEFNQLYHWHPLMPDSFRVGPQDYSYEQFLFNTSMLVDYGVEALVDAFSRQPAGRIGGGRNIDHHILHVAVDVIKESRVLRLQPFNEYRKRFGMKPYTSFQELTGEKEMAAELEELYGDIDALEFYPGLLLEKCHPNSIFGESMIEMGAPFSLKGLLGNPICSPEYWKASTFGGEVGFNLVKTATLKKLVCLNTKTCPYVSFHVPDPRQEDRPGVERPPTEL
assay-info: Inhibition of ovine COX1 pre-incubated for 15 mins followed by addition of heme and fluorometric substrate and further incubated for 15 mins in presence of arachidonic acid by fluorescence based assay
conditions: read-out: IC50
readout-kind: pIC50
pIC50 field: float, defined as -log10 of concentration (mol/L).

The molecule identified as CC(=O)/N=C/Cc1ccc2c(c1)O[C@H](c1ccc(O)c(O)c1)[C@@H](NC(C)=O)O2 (relative stereo) registered its pIC50 at 4.86

Reference source: ChEMBL document CHEMBL3425477
